- target: Serine-protein kinase ATM (Homo sapiens, UniProt Q13315)
- Sequence (Q13315 whole entry): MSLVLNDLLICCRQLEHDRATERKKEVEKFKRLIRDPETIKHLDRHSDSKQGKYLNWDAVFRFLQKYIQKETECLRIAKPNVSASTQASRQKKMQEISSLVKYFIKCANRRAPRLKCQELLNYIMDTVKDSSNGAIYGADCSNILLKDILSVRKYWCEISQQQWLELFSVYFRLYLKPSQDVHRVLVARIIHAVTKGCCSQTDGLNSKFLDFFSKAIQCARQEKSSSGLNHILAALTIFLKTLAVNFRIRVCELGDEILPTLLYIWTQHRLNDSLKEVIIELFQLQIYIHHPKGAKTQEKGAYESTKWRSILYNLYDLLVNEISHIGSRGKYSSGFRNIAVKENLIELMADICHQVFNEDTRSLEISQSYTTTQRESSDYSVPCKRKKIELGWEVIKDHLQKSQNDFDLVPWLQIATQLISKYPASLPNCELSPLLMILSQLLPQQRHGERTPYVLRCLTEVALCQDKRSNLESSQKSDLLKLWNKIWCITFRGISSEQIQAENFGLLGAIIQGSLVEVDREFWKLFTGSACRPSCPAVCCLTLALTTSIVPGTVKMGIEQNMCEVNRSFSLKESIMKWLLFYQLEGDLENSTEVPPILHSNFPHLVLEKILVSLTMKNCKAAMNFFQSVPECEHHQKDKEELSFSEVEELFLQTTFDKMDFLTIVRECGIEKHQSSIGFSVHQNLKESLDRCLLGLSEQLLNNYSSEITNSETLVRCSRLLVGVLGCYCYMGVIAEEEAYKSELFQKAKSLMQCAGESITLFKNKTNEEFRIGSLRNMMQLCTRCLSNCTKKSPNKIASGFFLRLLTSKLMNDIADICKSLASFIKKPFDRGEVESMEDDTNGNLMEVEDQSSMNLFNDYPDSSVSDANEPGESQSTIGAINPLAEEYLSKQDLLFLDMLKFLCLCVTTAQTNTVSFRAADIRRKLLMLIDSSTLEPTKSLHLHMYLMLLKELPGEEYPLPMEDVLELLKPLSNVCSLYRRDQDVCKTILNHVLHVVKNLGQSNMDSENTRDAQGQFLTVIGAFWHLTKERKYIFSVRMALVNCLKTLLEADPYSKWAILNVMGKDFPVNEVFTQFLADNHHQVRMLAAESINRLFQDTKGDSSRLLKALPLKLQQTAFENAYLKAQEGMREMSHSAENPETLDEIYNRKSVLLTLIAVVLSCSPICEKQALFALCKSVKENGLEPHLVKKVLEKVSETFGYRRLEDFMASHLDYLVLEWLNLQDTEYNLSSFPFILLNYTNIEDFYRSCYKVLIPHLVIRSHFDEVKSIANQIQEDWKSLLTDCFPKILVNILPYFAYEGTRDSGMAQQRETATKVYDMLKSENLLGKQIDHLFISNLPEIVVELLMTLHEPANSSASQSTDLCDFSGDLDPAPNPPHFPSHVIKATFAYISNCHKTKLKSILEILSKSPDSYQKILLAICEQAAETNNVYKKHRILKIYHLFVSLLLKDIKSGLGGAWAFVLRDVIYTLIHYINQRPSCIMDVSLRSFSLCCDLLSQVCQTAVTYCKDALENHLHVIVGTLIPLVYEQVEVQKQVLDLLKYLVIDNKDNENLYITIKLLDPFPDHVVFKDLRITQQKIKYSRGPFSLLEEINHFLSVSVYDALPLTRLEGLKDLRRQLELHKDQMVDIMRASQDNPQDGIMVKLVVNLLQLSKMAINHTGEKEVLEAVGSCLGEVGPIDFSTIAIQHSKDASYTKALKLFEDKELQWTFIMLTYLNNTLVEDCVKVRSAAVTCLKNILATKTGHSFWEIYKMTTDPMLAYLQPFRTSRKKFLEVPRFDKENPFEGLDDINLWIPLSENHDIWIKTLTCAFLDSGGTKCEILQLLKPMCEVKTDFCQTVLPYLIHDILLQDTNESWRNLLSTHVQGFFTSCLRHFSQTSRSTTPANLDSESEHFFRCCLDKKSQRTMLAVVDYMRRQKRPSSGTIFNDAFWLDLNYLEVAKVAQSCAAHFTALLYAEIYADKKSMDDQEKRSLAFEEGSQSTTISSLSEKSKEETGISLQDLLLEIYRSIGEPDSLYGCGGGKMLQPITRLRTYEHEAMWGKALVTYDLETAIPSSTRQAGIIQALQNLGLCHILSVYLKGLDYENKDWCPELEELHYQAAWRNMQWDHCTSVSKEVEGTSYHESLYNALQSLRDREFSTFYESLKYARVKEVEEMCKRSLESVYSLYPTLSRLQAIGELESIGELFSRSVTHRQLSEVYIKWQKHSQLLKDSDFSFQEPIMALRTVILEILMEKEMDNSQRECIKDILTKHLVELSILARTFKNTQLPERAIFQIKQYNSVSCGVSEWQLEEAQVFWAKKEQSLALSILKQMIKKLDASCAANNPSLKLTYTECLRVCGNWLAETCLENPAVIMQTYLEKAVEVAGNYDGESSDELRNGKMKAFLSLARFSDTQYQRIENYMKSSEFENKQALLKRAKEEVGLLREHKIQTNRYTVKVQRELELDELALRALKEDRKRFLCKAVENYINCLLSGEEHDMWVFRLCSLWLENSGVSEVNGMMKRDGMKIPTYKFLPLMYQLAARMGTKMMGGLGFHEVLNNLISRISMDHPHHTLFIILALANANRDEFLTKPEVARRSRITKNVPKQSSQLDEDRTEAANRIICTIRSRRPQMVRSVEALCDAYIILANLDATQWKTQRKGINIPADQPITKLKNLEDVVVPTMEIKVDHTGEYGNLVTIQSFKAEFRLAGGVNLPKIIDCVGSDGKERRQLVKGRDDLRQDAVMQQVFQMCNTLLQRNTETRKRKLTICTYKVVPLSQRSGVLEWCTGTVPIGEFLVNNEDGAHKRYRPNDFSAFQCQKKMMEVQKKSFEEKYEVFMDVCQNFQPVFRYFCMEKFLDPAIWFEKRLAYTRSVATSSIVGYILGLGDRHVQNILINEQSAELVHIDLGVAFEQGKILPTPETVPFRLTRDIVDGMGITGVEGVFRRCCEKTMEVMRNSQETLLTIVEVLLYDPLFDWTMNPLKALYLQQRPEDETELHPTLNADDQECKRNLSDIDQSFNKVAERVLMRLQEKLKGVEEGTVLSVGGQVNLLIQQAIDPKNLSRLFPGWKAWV
measured_parameter: IC50

Provide value of IC50 for this record tested with Serine-protein kinase ATM (Homo sapiens, UniProt Q13315): Cc1nc(NC(=O)N2CCC[C@H]2C(N)=O)sc1-c1ccnc(C(C)(C)C(F)(F)F)c1 [ALPELISIB]
> 10 µM

###

- target: Phosphatidylinositol 4,5-bisphosphate 3-kinase catalytic subunit gamma isoform (Homo sapiens)
- Sequence (P48736 whole entry, canonical isoform): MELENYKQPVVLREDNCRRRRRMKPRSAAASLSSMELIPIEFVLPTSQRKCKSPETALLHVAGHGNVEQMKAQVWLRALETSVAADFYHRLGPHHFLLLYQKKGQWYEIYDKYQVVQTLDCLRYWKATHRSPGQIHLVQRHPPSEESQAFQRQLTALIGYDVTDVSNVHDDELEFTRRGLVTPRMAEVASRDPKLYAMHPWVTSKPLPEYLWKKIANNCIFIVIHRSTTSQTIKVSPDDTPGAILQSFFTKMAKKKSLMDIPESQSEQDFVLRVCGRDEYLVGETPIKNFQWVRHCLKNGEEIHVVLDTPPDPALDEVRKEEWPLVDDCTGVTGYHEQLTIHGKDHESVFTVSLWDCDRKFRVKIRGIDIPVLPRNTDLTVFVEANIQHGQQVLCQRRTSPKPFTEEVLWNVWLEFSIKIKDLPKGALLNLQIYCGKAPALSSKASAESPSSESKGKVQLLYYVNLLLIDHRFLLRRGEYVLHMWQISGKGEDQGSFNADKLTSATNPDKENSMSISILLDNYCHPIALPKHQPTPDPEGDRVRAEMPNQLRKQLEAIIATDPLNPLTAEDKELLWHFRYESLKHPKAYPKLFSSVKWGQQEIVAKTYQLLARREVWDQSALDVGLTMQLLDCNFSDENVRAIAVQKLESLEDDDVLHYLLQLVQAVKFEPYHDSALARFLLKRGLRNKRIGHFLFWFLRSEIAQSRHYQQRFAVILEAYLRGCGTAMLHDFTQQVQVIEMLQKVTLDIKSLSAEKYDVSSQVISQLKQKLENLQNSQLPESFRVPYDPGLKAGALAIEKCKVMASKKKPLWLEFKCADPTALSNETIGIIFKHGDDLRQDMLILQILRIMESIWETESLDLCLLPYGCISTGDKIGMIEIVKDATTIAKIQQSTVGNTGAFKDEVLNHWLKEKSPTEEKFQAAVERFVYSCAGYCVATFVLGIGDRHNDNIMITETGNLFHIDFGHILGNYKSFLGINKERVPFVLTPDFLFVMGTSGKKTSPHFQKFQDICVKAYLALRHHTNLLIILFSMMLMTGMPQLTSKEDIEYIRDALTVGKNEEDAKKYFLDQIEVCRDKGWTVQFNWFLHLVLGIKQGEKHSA
- procedure_details: Inhibition of P110gamma (unknown origin) using PIP2:PS as substrate by TR-FRET assay
pIC50: −log10 of the molar value.
Returns 1 if the recorded pIC50 is greater than or equal to 6, and 0 otherwise.

>>> class_name("CCN(CC)c1nccc(-c2sc(NC(=O)N3CCC[C@H]3C(N)=O)nc2C)n1")
1
>>> class_name("Cc1nc(NC(=O)N2CCC[C@H]2C(N)=O)sc1-c1ccnc(C(C)(C)C)c1")
1
>>> class_name("Cc1nc(NC(=O)N2CCC[C@@H]2C(N)=O)sc1-c1ccnc(C(C)(C)C)c1")
0
>>> class_name("Cc1nc(NC(=O)N2CCC[C@H]2C(N)=O)sc1-c1ccnc(C2CCC2)n1")
1
>>> class_name("CNC(=O)[C@@H]1CCCN1C(=O)Nc1nc(C)c(-c2ccnc(C(C)(C)C)c2)s1")
0

I'd appreciate it if you could say whether `Cc1nc(NC(=O)N2CC[C@H]2C(N)=O)sc1-c1ccnc(C(C)(C)C)n1` has pIC50 at least equal to 6.
1
